This document collects % Inhibition Factor Xa (100 µM) values reported for Human factor Xa (Homo sapiens, UniProt P00742).
Answer with a number only, understood to be in %.

Requested field: % Inhibition Factor Xa (100 µM). Item: "COc1ccc(-c2c(Cl)nc(NCCc3cccc(Cl)c3)c(=O)n2CC(=O)NCCc2cccnc2)cc1" 5

Do the same for "COc1ccc(-c2c(Cl)nc(NCCc3cccnc3)c(=O)n2CC(=O)NCCc2ccncc2)cc1" please 0

What do we get for COc1ccc(-c2c(Cl)nc(NCc3ccccc3)c(=O)n2CC(=O)NCCc2ccncc2)cc1 [Example E-0097] ? 3

Same thing, different compound: "O=C(Cn1c(Cc2ccccc2)c(Cl)nc(NCCc2cccc(Cl)c2)c1=O)NCCc1ccncc1" 0

* * *

Dear all, this message contains IC50 or % Inhibition Factor Xa (30 µM) results, target or system Human factor Xa (Homo sapiens, UniProt P00742).
Kindly answer with a numeric value in %, unit omitted.

Need IC50 or % Inhibition Factor Xa (30 µM), item N=C(N)c1ccc(CNC(=O)Cn2c(-c3ccccc3)c(Cl)nc(NCCCn3ccnc3)c2=O)cc1 [1507-05] 10

Then what about the compound Cc1c(Cl)nc(NCCc2ccncc2)c(=O)n1CC(=O)NCc1ccc(C(=N)N)cc1 [1471-5] ? 12

CCCCNc1nc(Cl)c(-c2cccc(N)c2)n(CC(=O)NCc2ccc(C(=N)N)cc2F)c1=O [1543-36] , same question. 15

How about this compound: C[C@@H](C(=O)NCc1ccc(C(=N)N)cc1)n1c(-c2ccccc2)c(Cl)nc(NC2CCC2)c1=O [1517-09] 0

* * *

For reference, % Inhibition Factor Xa (100 µM) measured on Human factor Xa (Homo sapiens):
Quick note: give the figure in %, leave out the unit.

State the recorded % Inhibition Factor Xa (100 µM) for this entry: "O=C(Cn1c(-c2ccccc2)c(Cl)nc(NCCc2cccnc2)c1=O)NCCc1ccncc1" 0

Can you handle "O=C(Cn1c(Cc2ccccc2)c(Cl)nc(NCCc2ccncc2)c1=O)NCCc1ccncc1" next? 0

Proceed to "O=C(Cn1c(-c2ccc(-c3ccccc3)cc2)c(Cl)nc(NCCc2ccc(Cl)cc2)c1=O)NCCc1cccnc1" 5

Try the molecule "O=C(Cn1c(-c2ccccc2)c(Cl)nc(NCCc2cccc(Cl)c2)c1=O)NCCc1ccncc1" 0

* * *

- target desc: TF-VIIa (Homo sapiens)
- Construct: 2nM recombinant human factor VIIa; purchased American Diagnostica, Greenwich CT; host or cells: soluble TF made in house in E. coli
- Sequence (P08709 213-466 limits assumed): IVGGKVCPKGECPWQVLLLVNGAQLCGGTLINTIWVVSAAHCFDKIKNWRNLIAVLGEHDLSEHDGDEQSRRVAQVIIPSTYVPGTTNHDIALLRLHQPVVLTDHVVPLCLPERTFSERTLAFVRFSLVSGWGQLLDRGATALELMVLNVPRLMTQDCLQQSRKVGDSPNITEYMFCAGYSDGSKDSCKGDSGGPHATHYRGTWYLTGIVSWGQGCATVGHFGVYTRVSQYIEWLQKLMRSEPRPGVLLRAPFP
- Sequence (P08709 61-212 limits assumed): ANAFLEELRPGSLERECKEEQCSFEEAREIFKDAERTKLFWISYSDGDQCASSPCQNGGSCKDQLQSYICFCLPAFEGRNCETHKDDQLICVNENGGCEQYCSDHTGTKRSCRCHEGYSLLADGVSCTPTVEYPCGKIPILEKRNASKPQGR
- Sequence (P13726 33-251 partner limits assumed): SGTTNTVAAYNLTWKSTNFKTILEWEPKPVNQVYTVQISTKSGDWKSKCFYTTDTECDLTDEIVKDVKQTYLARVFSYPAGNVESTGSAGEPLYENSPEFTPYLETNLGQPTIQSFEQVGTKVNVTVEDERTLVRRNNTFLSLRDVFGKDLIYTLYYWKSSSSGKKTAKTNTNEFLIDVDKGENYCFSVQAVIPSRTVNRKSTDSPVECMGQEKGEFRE
- experimental details: TF-VIIa Assay
- Format: biochemical
- condition summary: read-out: IC50 or % Inhibition TF-VIIa (30 µM); cells given as a plain number (IC50)
For each of the compounds below, state its pIC50.
The read-out pIC50 is expressed as -log10 of concentration in moles per litre.

Name the reported pIC50 value associated with the compound COc1cccc(-c2c(Cl)nc(NC3CCC3)c(=O)n2CC(=O)NCc2ccc(C(=N)N)cc2)c1 [1515-17] 5.36

Then what about the compound C[C@H](Nc1nc(Cl)c(-c2cccc(N)c2)n(CC(=O)NCc2ccc(C(=N)N)cc2)c1=O)C1CCCCC1 [1526-29] ? 6.92

What do you get for N=C(N)c1ccc(CNC(=O)Cn2c(-c3cccc(Br)c3)c(Cl)nc(NCCc3ccccc3)c2=O)cc1 [1515-34] ? 5.36

What would you report for COc1ccccc1-c1c(Cl)nc(NCc2ccccc2)c(=O)n1CC(=O)NCc1ccc(C(=N)N)cc1 [1515-02] ? 5.42

// repeat for CC[C@@H](C)Nc1nc(Cl)c(-c2cccc(N)c2)n(CC(=O)NCc2ccc(C(=N)N)cc2)c1=O [1526-16] and report 7.40

Next compound up: N=C(N)c1ccc(CNC(=O)Cn2c(-c3ccccc3)c(Cl)nc(NCCc3cccnc3)c2=O)cc1 [1471-16] 6.09

Next entry: N=C(N)c1ccc(CNC(=O)Cn2c(-c3cccc(Cl)c3)c(Cl)nc(NCCc3cccnc3)c2=O)cc1 [1471-32] 5.92

Then N=C(N)c1ccc(CNC(=O)Cn2c(-c3ccccc3)c(Cl)nc(NCCc3ccc(Cl)c(Cl)c3)c2=O)cc1 [1507-44] ? 5.22

Next up: N=C(N)c1ccc(CNC(=O)Cn2c(-c3ccccc3)c(Cl)nc(NCc3c(F)cccc3F)c2=O)cc1 [1512-43] 4.96

Same thing, different compound: COc1ccccc1-c1c(Cl)nc(NC2CCC2)c(=O)n1CC(=O)NCc1ccc(C(=N)N)cc1 [1515-14] 5.54

Please answer likewise for Cc1ccc(CCNc2nc(Cl)c(-c3ccccc3)n(CC(=O)NCc3ccc(C(=N)N)cc3)c2=O)cc1 [1507-45] 5.14

Cool, now N=C(N)c1ccc(CNC(=O)Cn2c(-c3sccc3Br)c(Cl)nc(NCCc3ccccc3)c2=O)cc1 [1515-27] 5.96

Now consider CC(C)Nc1nc(Cl)c(-c2cccc(N)c2)n(CC(=O)NCCc2ccc(C(=N)N)cc2)c1=O [Example 62] . 5.25

Again, but for Nc1n[nH]c2cc(CNC(=O)Cn3c(-c4ccccc4)cnc(NCCc4ccccc4)c3=O)ccc12 [Example 39] 5.77

Another compound to check: Cc1c(Cl)nc(NCCc2ccc(Cl)cc2)c(=O)n1CC(=O)NCc1ccc(C(=N)N)cc1 [1471-2] 5.44

And for N=C(N)c1ccc(CNC(=O)Cn2c(-c3cccc(C(F)(F)F)c3)c(Cl)nc(NCc3ccccc3)c2=O)cc1 [1515-01] ? 5.15

# repeat for CCc1c(Cl)nc(NCCc2ccncc2)c(=O)n1CC(=O)NCc1ccc(C(=N)N)cc1 [1471-61] 5.30

Could you do the same for N=C(N)c1ccc(CNC(=O)Cn2c(-c3ccccc3)c(Cl)nc(NCC3COc4ccccc4O3)c2=O)cc1 (stereo not drawn) [1512-01] , please? 4.74

Request: N=C(N)c1ccc(CNC(=O)Cn2c(-c3c(Cl)cccc3Cl)c(Cl)nc(NCCc3ccccc3)c2=O)cc1 [1517-18] 5.89

Lookup N=C(N)c1ccc(CNC(=O)Cn2c(-c3ccc4c(c3)OCO4)c(Cl)nc(NCCc3ccc(Cl)cc3)c2=O)cc1 [1471-42] 4.98

Same for N=C(N)c1ccc(CNC(=O)Cn2c(-c3ccc4c(c3)OCO4)c(Cl)nc(NCc3ccncc3)c2=O)cc1 [1471-43] 4.60

Item: COc1ccc(CCNc2nc(Cl)c(-c3ccccc3)n(CC(=O)NCc3ccc(C(=N)N)cc3)c2=O)cc1OC [1512-05] 4.78

Lookup N=C(N)c1ccc(CNC(=O)Cn2c(-c3ccccc3F)c(Cl)nc(NC3CCC3)c2=O)cc1 [1515-23] 5.21

What about this compound? C[C@H](C(=O)NCc1ccc(C(=N)N)cc1)n1c(-c2ccccc2)c(Cl)nc(NC2CCC2)c1=O [1517-11] 5.52

Param item: N=C(N)c1ccc(CNC(=O)Cn2c(-c3ccccc3)c(Cl)nc(NCCCn3ccnc3)c2=O)cc1 [1507-05] 5.33

Next entry: N=C(N)c1ccc(CNC(=O)Cn2c(-c3ccccc3)c(Cl)nc(NCc3ccc(C(F)(F)F)cc3F)c2=O)cc1 [1512-26] 4.57

Similarly, N=C(N)c1ccc(CNC(=O)Cn2c(-c3cccc(F)c3)c(Cl)nc(NCc3ccccc3)c2=O)cc1 [1515-09] ? 5.39

One more compound: CC(C)Nc1ncc(-c2cccc(N)c2)n(CC(=O)NCc2ccc(C(=N)N)c(F)c2)c1=O [Example 43] 6.60

What about N=C(N)c1ccc(CNC(=O)Cn2c(-c3cccc(N)c3)c(Cl)nc(NC[C@@H]3CCCO3)c2=O)cc1 [1526-33] ? 6.59

Also, N=C(N)c1ccc(CNC(=O)Cn2c(-c3ccc(Cl)cc3)c(Cl)nc(NCCc3ccc(Cl)cc3)c2=O)cc1 [1471-18] please. 4.95

Cited source for all entries: patent EP1202975B1
